Readings of Papp at 100 ug/ml for the listed molecules
# assay overview: in vitro
# condition context: PAMPA, pH 7.4
# Description: Permeability of the compound in pH 7.4 PBS/EtOH at 100 ug/ml by PAMPA-BBB assay
Express your answer in ×10⁻⁶ cm/s, writing the number without its unit.

- compound structure: "CCN(C)C(=O)Oc1cccc(/C=C/C(=O)c2ccccc2OC(=O)N(C)CC)c1"
  Papp at 100 ug/ml (×10⁻⁶ cm/s): 23.1

State its Papp at 100 ug/ml for this molecule: CCN(C)C(=O)Oc1cccc(/C=C/C(=O)c2ccccc2O)c1
15.7

---

# target or test system: Amine oxidase [flavin-containing] B (Homo sapiens, UniProt P27338)
# Sequence (P27338 whole entry): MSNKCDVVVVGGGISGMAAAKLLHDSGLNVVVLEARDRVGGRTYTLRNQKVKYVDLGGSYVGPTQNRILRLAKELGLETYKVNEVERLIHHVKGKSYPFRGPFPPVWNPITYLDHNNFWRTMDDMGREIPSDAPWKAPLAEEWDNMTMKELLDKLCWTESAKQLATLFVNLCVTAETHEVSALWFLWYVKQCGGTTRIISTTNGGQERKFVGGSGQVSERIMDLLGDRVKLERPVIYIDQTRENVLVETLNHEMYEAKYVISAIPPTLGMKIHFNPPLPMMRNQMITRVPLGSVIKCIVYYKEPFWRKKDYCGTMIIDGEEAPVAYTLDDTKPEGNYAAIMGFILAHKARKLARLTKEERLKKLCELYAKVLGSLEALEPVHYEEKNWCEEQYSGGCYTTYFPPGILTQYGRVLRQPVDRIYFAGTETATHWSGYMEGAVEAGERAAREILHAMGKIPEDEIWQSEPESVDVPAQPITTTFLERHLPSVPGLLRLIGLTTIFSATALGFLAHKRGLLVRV
# assay overview: biochemical
# Description: Inhibition of recombinant human MAO-B expressed in baculovirus infected BTI insect cells using kynuramine as substrate measured after 30 mins by fluorescence based assay
measured metric: IC50 (µM)
Express your answer in µM, writing the number without its unit.

- compound structure: "O=C(/C=C/c1cccc(OC(=O)N2CCOCC2)c1)c1ccccc1OC(=O)N1CCOCC1"
  IC50 / µM: 5.2
- compound structure: "O=C(/C=C/c1cccc(OC(=O)N(c2ccccc2)c2ccccc2)c1)c1ccccc1OC(=O)N(c1ccccc1)c1ccccc1"
  IC50 / µM: 6.3
- compound structure: "O=C(/C=C/c1cccc(OC(=O)N(c2ccccc2)c2ccccc2)c1)c1ccccc1O"
  IC50 / µM: 4.9
- compound structure: "CN(C)C(=O)Oc1cccc(/C=C/C(=O)c2ccccc2O)c1"
  IC50 / µM: 0.8
- compound structure: "CON(C)C(=O)Oc1cccc(/C=C/C(=O)c2ccccc2OC(=O)N(C)OC)c1"
  IC50 / µM: 4.6
- compound structure: "CN(C)C(=O)Oc1cccc(/C=C/C(=O)c2ccccc2OC(=O)N(C)C)c1"
  IC50 / µM: 2.9
- compound structure: "CCN(CC)C(=O)Oc1cccc(/C=C/C(=O)c2ccccc2OC(=O)N(CC)CC)c1"
  IC50 / µM: 3.3
- compound structure: "CCN(CC)C(=O)Oc1cccc(/C=C/C(=O)c2ccccc2O)c1"
  IC50 / µM: 1.8
- compound structure: "CON(C)C(=O)Oc1cccc(/C=C/C(=O)c2ccccc2O)c1"
  IC50 / µM: 2.6
- compound structure: "CCN(C)C(=O)Oc1cccc(/C=C/C(=O)c2ccccc2OC(=O)N(C)CC)c1"
  IC50 / µM: 3.7

State its IC50 for this molecule: O=C(/C=C/c1cccc(O)c1)c1ccccc1O
1.1

State its IC50 for this molecule: CCN(C)C(=O)Oc1cccc(/C=C/C(=O)c2ccccc2O)c1
1.3

State its IC50 for this molecule: O=C(/C=C/c1cccc(OC(=O)N2CCOCC2)c1)c1ccccc1O
3.1

---

# target or test system: Cholinesterase (Equus caballus, UniProt P81908)
# Sequence (P81908 whole entry): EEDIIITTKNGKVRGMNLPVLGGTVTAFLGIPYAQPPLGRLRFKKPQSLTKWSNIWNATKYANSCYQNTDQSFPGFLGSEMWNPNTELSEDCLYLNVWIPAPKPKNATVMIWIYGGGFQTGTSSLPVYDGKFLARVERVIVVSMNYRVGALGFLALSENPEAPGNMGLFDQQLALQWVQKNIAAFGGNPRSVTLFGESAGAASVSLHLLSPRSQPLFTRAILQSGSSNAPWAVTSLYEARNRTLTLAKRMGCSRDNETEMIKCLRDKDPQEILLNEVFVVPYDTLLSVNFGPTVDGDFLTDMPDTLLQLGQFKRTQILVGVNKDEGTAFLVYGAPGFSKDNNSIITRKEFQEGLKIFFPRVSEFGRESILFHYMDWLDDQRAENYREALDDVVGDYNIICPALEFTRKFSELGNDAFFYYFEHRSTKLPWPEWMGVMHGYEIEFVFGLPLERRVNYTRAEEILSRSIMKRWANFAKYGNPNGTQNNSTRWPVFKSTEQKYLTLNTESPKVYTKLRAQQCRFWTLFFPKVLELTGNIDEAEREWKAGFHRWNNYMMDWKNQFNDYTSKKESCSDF
# assay overview: Inhibition of equine serum BuChE using S-butyrylthiocholine iodide as susbtrate preincubated for 6 mins followed by substrate addition measured up to 3 mins by Ellman's method
Hi! Just check whether IC50 is below 4 µM. Below gives 1.0, equal or above gives 0.0.

Illustrative cases are given below, each with its answer.
- compound structure: "CCN(CC)C(=O)Oc1cccc(/C=C/C(=O)c2ccccc2O)c1"
  target or test system: "Cholinesterase (Equus caballus, UniProt P81908)"
  qualitative label: 0.0
- compound structure: "CN(C)C(=O)Oc1cccc(/C=C/C(=O)c2ccccc2O)c1"
  target or test system: "Cholinesterase (Equus caballus, UniProt P81908)"
  qualitative label: 1.0
- compound structure: "CON(C)C(=O)Oc1cccc(/C=C/C(=O)c2ccccc2O)c1"
  target or test system: "Cholinesterase (Equus caballus, UniProt P81908)"
  qualitative label: 1.0
- compound structure: "CCN(C)C(=O)Oc1cccc(/C=C/C(=O)c2ccccc2OC(=O)N(C)CC)c1"
  target or test system: "Cholinesterase (Equus caballus, UniProt P81908)"
  qualitative label: 1.0

Kindly consider the entry below.
Hello, is IC50 of the following compound strictly smaller than 4 µM? CN(C)C(=O)Oc1cccc(/C=C/C(=O)c2ccccc2OC(=O)N(C)C)c1
0.0

---

# target or test system: Amyloid-beta precursor protein (Homo sapiens) (UniProt P05067)
# Sequence (P05067 whole entry): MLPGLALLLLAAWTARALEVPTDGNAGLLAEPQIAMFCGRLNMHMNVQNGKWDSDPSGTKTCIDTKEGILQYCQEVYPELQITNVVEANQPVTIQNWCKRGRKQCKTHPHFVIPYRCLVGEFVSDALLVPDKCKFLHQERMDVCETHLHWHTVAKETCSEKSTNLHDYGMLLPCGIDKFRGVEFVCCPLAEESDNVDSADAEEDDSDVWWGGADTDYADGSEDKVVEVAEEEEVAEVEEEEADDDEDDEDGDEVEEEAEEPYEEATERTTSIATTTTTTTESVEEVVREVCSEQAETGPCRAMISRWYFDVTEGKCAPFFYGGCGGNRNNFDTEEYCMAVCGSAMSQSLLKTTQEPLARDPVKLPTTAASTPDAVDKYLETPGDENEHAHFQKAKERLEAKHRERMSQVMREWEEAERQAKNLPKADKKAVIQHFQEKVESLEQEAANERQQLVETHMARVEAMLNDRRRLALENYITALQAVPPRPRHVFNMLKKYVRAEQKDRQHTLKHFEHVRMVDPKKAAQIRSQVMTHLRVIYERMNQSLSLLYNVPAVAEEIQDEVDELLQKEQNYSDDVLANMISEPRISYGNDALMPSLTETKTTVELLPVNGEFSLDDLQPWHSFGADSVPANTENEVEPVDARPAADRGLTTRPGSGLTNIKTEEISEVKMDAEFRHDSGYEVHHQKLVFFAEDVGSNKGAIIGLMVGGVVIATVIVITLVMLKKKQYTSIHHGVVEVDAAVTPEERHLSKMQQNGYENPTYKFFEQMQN
# assay overview: Inhibition of self-induced amyloid beta (1 to 42) (unknown origin) aggregation at 25 uM after 24 hrs by thioflavin-T based fluorescence assay relative to control
measured metric: inhibition (%)
Express your answer in %, writing the number without its unit.

Some entries whose results are on file:
- compound structure: "O=C(/C=C/c1cccc(O)c1)c1ccccc1O"
  target or test system: "Amyloid-beta precursor protein (Homo sapiens) (UniProt P05067)"
  measured metric: "inhibition"
  unit label: "%"
  result value: 70.6
- compound structure: "CN(C)C(=O)Oc1cccc(/C=C/C(=O)c2ccccc2O)c1"
  target or test system: "Amyloid-beta precursor protein (Homo sapiens) (UniProt P05067)"
  measured metric: "inhibition"
  unit label: "%"
  result value: 60.2
- compound structure: "CON(C)C(=O)Oc1cccc(/C=C/C(=O)c2ccccc2O)c1"
  target or test system: "Amyloid-beta precursor protein (Homo sapiens) (UniProt P05067)"
  measured metric: "inhibition"
  unit label: "%"
  result value: 61.4

Report the value of inhibition obtained on Amyloid-beta precursor protein (Homo sapiens) (UniProt P05067) for CCN(CC)C(=O)Oc1cccc(/C=C/C(=O)c2ccccc2OC(=O)N(CC)CC)c1 .
51.5

Report the value of inhibition obtained on Amyloid-beta precursor protein (Homo sapiens) (UniProt P05067) for CON(C)C(=O)Oc1cccc(/C=C/C(=O)c2ccccc2OC(=O)N(C)OC)c1 .
49.9

Report the value of inhibition obtained on Amyloid-beta precursor protein (Homo sapiens) (UniProt P05067) for CCN(C)C(=O)Oc1cccc(/C=C/C(=O)c2ccccc2OC(=O)N(C)CC)c1 .
53.1

Report the value of inhibition obtained on Amyloid-beta precursor protein (Homo sapiens) (UniProt P05067) for CCN(C)C(=O)Oc1cccc(/C=C/C(=O)c2ccccc2O)c1 .
63.9

Report the value of inhibition obtained on Amyloid-beta precursor protein (Homo sapiens) (UniProt P05067) for O=C(/C=C/c1cccc(OC(=O)N2CCOCC2)c1)c1ccccc1OC(=O)N1CCOCC1 .
49.2

---

# target or test system: Acetylcholinesterase (AChE) (Electrophorus electricus, UniProt O42275)
# Sequence (O42275 whole entry): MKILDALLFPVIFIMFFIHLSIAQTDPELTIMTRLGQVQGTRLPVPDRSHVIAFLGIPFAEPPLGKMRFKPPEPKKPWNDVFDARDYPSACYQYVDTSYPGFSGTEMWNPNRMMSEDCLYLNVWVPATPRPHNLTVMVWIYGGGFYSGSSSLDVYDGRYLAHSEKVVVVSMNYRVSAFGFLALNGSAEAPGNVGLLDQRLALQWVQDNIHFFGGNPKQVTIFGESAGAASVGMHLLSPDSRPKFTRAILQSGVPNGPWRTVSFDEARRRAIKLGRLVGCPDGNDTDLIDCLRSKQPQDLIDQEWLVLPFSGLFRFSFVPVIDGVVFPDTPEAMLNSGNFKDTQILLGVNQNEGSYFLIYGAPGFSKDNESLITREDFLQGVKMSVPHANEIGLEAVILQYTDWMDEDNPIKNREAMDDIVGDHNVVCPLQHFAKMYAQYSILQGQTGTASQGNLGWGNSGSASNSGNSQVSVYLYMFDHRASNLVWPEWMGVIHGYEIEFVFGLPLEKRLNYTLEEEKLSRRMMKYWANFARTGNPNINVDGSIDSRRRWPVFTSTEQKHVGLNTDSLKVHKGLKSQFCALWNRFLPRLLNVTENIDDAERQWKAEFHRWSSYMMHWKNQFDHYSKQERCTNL
# assay overview: Inhibition of electric eel AChE at 25 uM using acetylthiocholine iodide as substrate incubated for 15 mins by Ellman's method relative to control
# condition context: electric eel acetylcholinesterase (isolated enzyme), probe acetylthiocholine iodide
measured metric: inhibition at 0.25 h, 25 µM (%)
Express your answer in %, writing the number without its unit.

Report the value of inhibition at 0.25 h, 25 µM obtained on Acetylcholinesterase (AChE) (Electrophorus electricus, UniProt O42275) for CCN(C)C(=O)Oc1cccc(/C=C/C(=O)c2ccccc2OC(=O)N(C)CC)c1 .
35.4

Report the value of inhibition at 0.25 h, 25 µM obtained on Acetylcholinesterase (AChE) (Electrophorus electricus, UniProt O42275) for CCN(CC)C(=O)Oc1cccc(/C=C/C(=O)c2ccccc2O)c1 .
16.9

Report the value of inhibition at 0.25 h, 25 µM obtained on Acetylcholinesterase (AChE) (Electrophorus electricus, UniProt O42275) for CCN(C)C(=O)Oc1cccc(/C=C/C(=O)c2ccccc2O)c1 .
26.2

Report the value of inhibition at 0.25 h, 25 µM obtained on Acetylcholinesterase (AChE) (Electrophorus electricus, UniProt O42275) for O=C(/C=C/c1cccc(OC(=O)N(c2ccccc2)c2ccccc2)c1)c1ccccc1O .
18.9

Report the value of inhibition at 0.25 h, 25 µM obtained on Acetylcholinesterase (AChE) (Electrophorus electricus, UniProt O42275) for CN(C)C(=O)Oc1cccc(/C=C/C(=O)c2ccccc2O)c1 .
28.8

Report the value of inhibition at 0.25 h, 25 µM obtained on Acetylcholinesterase (AChE) (Electrophorus electricus, UniProt O42275) for CON(C)C(=O)Oc1cccc(/C=C/C(=O)c2ccccc2OC(=O)N(C)OC)c1 .
45.4

Report the value of inhibition at 0.25 h, 25 µM obtained on Acetylcholinesterase (AChE) (Electrophorus electricus, UniProt O42275) for CON(C)C(=O)Oc1cccc(/C=C/C(=O)c2ccccc2O)c1 .
30.4

Report the value of inhibition at 0.25 h, 25 µM obtained on Acetylcholinesterase (AChE) (Electrophorus electricus, UniProt O42275) for O=C(/C=C/c1cccc(OC(=O)N2CCOCC2)c1)c1ccccc1OC(=O)N1CCOCC1 .
20.8
